- Target system: Large T antigen (Simian virus 40, UniProt P03070);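 note: Confirmatory-stage PubChem screen for compounds that inhibit SV40 T antigen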
- Sequence (P03070 whole entry): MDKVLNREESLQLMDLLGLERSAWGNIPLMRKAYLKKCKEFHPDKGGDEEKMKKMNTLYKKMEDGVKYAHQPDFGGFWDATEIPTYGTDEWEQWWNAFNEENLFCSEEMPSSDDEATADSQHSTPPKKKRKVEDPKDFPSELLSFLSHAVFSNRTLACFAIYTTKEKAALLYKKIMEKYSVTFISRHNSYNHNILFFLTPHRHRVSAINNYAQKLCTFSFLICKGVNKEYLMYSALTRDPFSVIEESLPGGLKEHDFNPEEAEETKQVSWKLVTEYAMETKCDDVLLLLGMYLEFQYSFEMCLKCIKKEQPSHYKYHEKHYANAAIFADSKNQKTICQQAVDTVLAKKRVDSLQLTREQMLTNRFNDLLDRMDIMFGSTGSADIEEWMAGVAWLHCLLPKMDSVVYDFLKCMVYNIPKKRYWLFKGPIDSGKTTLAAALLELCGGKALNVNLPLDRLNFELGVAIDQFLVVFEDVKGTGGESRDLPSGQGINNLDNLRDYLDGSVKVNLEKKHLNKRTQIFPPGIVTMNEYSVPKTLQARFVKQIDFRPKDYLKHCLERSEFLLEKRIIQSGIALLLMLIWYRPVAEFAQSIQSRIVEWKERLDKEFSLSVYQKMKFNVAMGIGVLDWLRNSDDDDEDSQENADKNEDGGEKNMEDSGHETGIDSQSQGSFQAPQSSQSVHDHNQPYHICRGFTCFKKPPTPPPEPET
- Format: functional, Betapolyomavirus macacae
Calls of active or inactive are those of the source.
Measured IC50 of individual entries

Here's what some known entries look like.
> print(dat)
                                   compound  measurement.name       assay.value
1  CSC1=NSC2=NC(=O)/C(=C\c3coc4ccccc4c3=O)C(=N)N12              IC50  67.1 µM (active)
2  COc1ccc(N2C(=O)/C(=C/c3ccco3)C(=O)NC2=S)cc1              IC50  10.8 µM (active)
3           CCN(CC)CCCCN1c2ccccc2Sc2ccccc21              IC50  14.2 µM (active)
4  OC[C@H]1O[C@@H](Oc2cc(O)cc(/C=C/c3ccc(O)cc3)c2)[C@H](O)[C@@H](O)[C@@H]1O              IC50  11.2 µM (active)
5  CCN(CC)C(=O)c1ccc2c(c1)C1C(Cl)C(Sc3ccccc3[N+](=O)[O-])CC1C(C(=O)O)N2 (stereo unspecified)              IC50  35.4 µM (active)

Ask | Looking for the measured IC50 of Cc1[nH]c2ccccc2c1-c1csc(NC(=O)CSCC(=O)O)n1 , can you help?
Reply | 26.2 µM (active)

* * *

- Target system: ATP-dependent molecular chaperone HSP82 (Candida albicans (strain WO-1) (Yeast))
- Procedure text: loss of DOC-induced GRE-beta-galactosidase reporter signal, dose response, Hsp90 inhibitor project, S. cerevisiae, luminescence (AID 2400);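 note: beta-galactosidase luminescence from glucocorticoid response element reporter as proxy for Hsp90 function; inhibitor potency where signal loss means Hsp90 inhibition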
- Type: functional, cell-based
Active and inactive are the calls of the source.
Outcomes you can answer with include only these: y (active), n (inactive)

> print(dat)
                                test.smiles  category
1  COc1ccc(-c2nnc(NC(=O)c3ccc(S(=O)(=O)N4CCc5ccccc5C4)cc3)o2)cc1         n

Ask | Please share the test call associated with Cc1ccc(-n2nc(C)c3c(C)cc(O)nc32)cc1 .
Reply | n

Ask | For CCN1/C(=C/C(C)=C/c2sc3ccccc3[n+]2CC)Sc2ccccc21 , which call appears in the assay record?
Reply | y

Ask | Entry O=Cc1ccc(O)c2ncccc12 : call = ?
Reply | y

* * *

- Procedure text: growth suppression of PTEN-null colon cells, dose response, cell-based, HCT116 PTEN knockout (AID 1047);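 note: HCT116 colon tumor cells with PTEN knocked out; cells exposed to compound for 60 hours before readout; potency for loss of cell viability measured by luminescence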
- Format: functional
Calls of active or inactive are those of the source.
Measurement name: EC50

Solved entries:
> print(dat)
                                   compound       assay.value
1  CCOC(=O)C1=C(c2ccccc2)N=c2s/c(=C\c3cccc(O)c3)c(=O)n2C1c1cccs1 (stereo unspecified)    15 µM (active)
2  CCc1ccc2c(c1)C1(NN=C(c3ccc(C)cc3)S1)C(=O)N2 (stereo unspecified)  4.58 µM (active)
3  O=[N+]([O-])c1cccc(/C=C/c2nc(/C=N/c3ccc4ccccc4c3)c(O)o2)c1  12.8 µM (active)
4  COC(=O)c1cc(=O)n(Cc2ccco2)/c(=N/c2ccc(F)c(Cl)c2)s1   8.9 µM (active)

Ask | Dear colleague, I am looking for the recorded EC50 of the following compound: O=C(N/N=C\c1ccc(CNS(=O)(=O)c2ccc(Cl)cc2)o1)C(=O)Nc1ccc(Oc2ccccc2)cc1
Reply | 9.47 µM (active)

Ask | # get_value(readout='EC50', item= Nc1c(C(=O)NCCN2CCOCC2)c2nc3ccccc3nc2n1CCc1ccccc1 )
Reply | 15.4 µM (active)

* * *

- Target system: G-protein coupled receptor 55 (Homo sapiens)
- Sequence (Q9Y2T6 whole entry): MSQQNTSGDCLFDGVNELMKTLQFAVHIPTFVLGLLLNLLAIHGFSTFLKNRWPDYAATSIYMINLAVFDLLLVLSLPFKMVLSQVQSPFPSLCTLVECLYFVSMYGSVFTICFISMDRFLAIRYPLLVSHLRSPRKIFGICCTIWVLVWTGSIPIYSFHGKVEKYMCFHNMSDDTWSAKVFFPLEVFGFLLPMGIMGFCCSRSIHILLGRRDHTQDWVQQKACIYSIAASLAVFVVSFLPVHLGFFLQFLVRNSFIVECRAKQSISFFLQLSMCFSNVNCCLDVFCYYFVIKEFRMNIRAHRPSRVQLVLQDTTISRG
- Procedure text: GPR55 antagonists blocking LPI-driven arrestin recruitment, primary screen, imaging, U2OS, beta-arrestin-GFP, LPI agonist (AID 2013);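 note: antagonist potency measured as reduced agonist-driven arrestin aggregation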
- Type: functional
Activity calls are given as the source filed them.
Measurement name: IC50

> print(dat)
                                   molecule       assay.value
1  N=c1c2c(ncn1Cc1ccco1)Oc1cc(O)ccc1C2c1ccccc1 (configuration not stated)  1200 nM (active)
2  CN1/C(=C/C(=O)CSc2ccccc2C(=O)O)C(C)(C)c2ccccc21  3440 nM (active)
3  Cc1c(Nc2cc(Cl)c3nonc3c2[N+](=O)[O-])c(=O)n(-c2ccccc2)n1C  3480 nM (active)
4  CCOC(=O)C(C)(C)N(Cc1ccc(C)cc1)S(=O)(=O)c1ccc(Cl)c([N+](=O)[O-])c1  3610 nM (active)
5  Oc1ccc(/C=N/Nc2nc(-c3ccccc3F)nc3ccccc23)c(O)c1  1470 nM (active)

Ask | Fill in: IC50 of COC(=O)c1c(NC(NC(=O)C(C)(C)C)C(Cl)(Cl)Cl)sc2c1CCC2 (configuration not stated) is ___
Reply | 2010 nM (active)

Ask | // returns reported IC50 for input COc1ccc(CNCc2cc3c(C(C)(C)C)nn(-c4ccccc4)c3[nH]c2=O)cc1
Reply | 2180 nM (active)

* * *

- Target system: High affinity choline transporter 1 (Homo sapiens, UniProt Q9GZV3)
- Sequence (Q9GZV3 whole entry): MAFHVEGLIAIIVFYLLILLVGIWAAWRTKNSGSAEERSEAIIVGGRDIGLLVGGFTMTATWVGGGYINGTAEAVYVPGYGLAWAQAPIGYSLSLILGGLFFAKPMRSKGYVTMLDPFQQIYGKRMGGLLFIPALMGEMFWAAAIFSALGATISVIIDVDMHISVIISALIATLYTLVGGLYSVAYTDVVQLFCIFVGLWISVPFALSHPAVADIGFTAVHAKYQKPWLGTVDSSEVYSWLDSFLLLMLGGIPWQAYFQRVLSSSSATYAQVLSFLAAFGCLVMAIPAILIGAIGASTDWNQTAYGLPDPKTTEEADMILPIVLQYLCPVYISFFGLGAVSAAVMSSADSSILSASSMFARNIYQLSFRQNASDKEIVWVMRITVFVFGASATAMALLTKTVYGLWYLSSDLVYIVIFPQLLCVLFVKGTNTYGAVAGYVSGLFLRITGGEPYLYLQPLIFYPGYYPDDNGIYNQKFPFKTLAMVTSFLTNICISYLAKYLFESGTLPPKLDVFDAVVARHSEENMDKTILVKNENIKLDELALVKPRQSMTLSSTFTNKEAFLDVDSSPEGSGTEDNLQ
- Procedure text: CHT inhibitors, dose response, cell-based, 5-point CRC, membrane potential dye (AID 504840)
- Type: functional
Activity calls are given as the source filed them.
Measurement name: IC50

Examples with answers:
> print(dat)
                                test.smiles                             target.system       assay.value
1   Cc1c(/N=C/c2cc(Br)cc(Br)c2O)cccc1C(=O)O  High affinity choline transporter 1 (Homo sapiens, UniProt Q9GZV3)  3.44 µM (active)
2  O=C(CSc1nnc(-c2ccco2)n1Cc1ccco1)NCc1cccs1  High affinity choline transporter 1 (Homo sapiens, UniProt Q9GZV3)  9.55 µM (active)
3              O=C(C[n+]1cccc(Br)c1)c1cccs1  High affinity choline transporter 1 (Homo sapiens, UniProt Q9GZV3)  13.2 µM (active)

Ask | Which value of IC50 has been reported for C=CCSc1nc2ccccc2n1Cc1nnc(-c2cccs2)o1 in the records?
Reply | 0.457 µM (active)

Ask | Quick check: IC50 of O=c1c2ccccc2[nH]c(=S)n1CCN1CCCCC1 ?
Reply | 8.77 µM (active)

* * *

Below is a list of entries, each paired with its recorded IC50 value.
- Target system: Mannose-6-phosphate isomerase (Homo sapiens, UniProt P34949)
- Sequence (P34949 whole entry): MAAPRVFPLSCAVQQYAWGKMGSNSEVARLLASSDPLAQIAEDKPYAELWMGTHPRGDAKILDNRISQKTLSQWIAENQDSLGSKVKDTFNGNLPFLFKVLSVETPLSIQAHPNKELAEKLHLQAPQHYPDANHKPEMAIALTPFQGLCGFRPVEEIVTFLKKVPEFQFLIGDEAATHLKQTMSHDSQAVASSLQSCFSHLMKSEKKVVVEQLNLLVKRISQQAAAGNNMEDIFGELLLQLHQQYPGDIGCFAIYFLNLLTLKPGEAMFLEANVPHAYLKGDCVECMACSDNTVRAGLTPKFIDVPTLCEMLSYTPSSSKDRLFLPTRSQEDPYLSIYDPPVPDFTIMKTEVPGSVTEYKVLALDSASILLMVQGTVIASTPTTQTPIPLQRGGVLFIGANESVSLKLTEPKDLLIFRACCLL
- Procedure text: human PMI inhibitors, high substrate, primary screen, biochemical, fluorescence intensity, high mannose 6-phosphate (AID 1220)
Active and inactive are the calls of the source.

Would you please look over these solved cases?
> print(dat)
                                   molecule           assay.value
1  Oc1cccc(/C=N/Nc2cc(N3CCOCC3)nc(N3CCOCC3)n2)c1  > 50 µM (not active)
2  O=C(NC1=NC(=O)C(F)(C(F)(F)F)S1)NC1CCCCC1 (centres undefined)  > 50 µM (not active)

Ask | Which value of IC50 has been reported for COCCO/C(O)=C1\C(C)=NC2(O)c3ccccc3C(=O)C12O (centres undefined) in the records?
Reply | > 50 µM (not active)

Ask | Fill blank: measured IC50 of the molecule CC1=CC(C)(C)Nc2ccc(OC(=O)CN3C(=O)c4cccc5cccc(c45)C3=O)cc21 is ____.
Reply | 33 µM (active)

* * *

# maps each entry to its EC50
- Procedure text: cytotoxicity toward NIH3T3 fibroblasts, dose response, counter-screen, cell-based, ATP luminescence, mouse fibroblasts (AID 2010);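 note: cells exposed to compound for about 90 hours before reading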
- Assay type: functional
The source made the active and inactive calls.

> print(dat)
                                   molecule       assay.value
1  CCCOc1ccc(-c2nc(SCc3ccccc3)nc(O)c2C#N)cc1OC  17.8 µM (active)

Ask | EC50 lookup needed for O=C(Nc1ccc(Cl)c(Cl)c1)Nc1nc(-c2ccccc2)cs1 , thanks.
Reply | > 60 µM (not active)

Ask | Recorded EC50 of O=C(Nc1nc(-c2ccc(S(=O)(=O)N3CCCCCC3)cc2)cs1)c1cccs1 , please.
Reply | 6.61 µM (active)

Ask | Could you tell me which EC50 is on file for CC(C)(C)c1cc(C(=O)NCCN2CCCC2)cc(C(C)(C)C)c1 ?
Reply | > 30 µM (not active)

Ask | Request the reported EC50 associated with Cc1ccc2[nH]c(C3CCCN(C(S)=Nc4ccccc4C)C3)nc2c1 (stereo not drawn)
Reply | > 60 µM (not active)

* * *

- Target system: UniProt:P61088
- Sequence (P61088 whole entry): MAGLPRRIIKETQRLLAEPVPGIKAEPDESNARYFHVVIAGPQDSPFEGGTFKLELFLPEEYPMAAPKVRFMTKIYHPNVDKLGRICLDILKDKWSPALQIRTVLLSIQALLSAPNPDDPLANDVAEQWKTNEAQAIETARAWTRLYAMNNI
- Assay type: functional
Activity calls are given as the source filed them.
Result category, one only: y for active, n for inactive

> print(dat)
                                   molecule  category
1  CN1CCN(c2ccc(S(=O)(=O)N3CCCCC3)cc2NC(=O)c2ccc3ccccc3c2)CC1         n
2  CCCCCCCCCC[N+](C)(C)CC/C=C1/c2ccccc2Sc2ccc(Cl)cc21         y
3  CCOc1ccc(NS(=O)(=O)c2cc(C(=O)NCCCN3CCOCC3)ccc2C)cc1         y
4  Cc1ccc(C(C(=O)NCC2CCCO2)N(C(=O)c2snc(C(N)=O)c2N)c2ccc(F)cc2)o1 (centres undefined)         n

Ask | // outcome(item) with item = COc1cc(/C=C/c2cc[n+](C)cc2)ccc1OCC(=O)Nc1ccc(Cl)c(Cl)c1
Reply | y

Ask | Recorded call for CC(C)N1CCc2c(sc(NC(=O)c3cc(-c4cccs4)nc4ccccc34)c2C(N)=O)C1 ?
Reply | n

Ask | Hi, sorry to bother you, what did the test record for COc1cc2sc(-c3ccccc3OC)c(-c3ccc(OCCN4CCCCC4)cc3)c2cc1OC ?
Reply | n

Ask | What outcome does the record of this test show for CC(=O)c1ccc(Sc2ccc(C(C)=O)cc2)cc1 ?
Reply | n

Ask | What did the test return for CCN1CCN(Cc2ccc(NC(=O)c3cc(NC(=O)c4cnn(-c5ccccc5)c4N)cc(OC)c3)cc2C(F)(F)F)CC1 ?
Reply | n

Where do the numbers come from? From ChEMBL document CHEMBL1201862.
